ASSAY METHOD TEXT: self-splicing fitness, log relative to wild type (ln ratio); higher = more splicing; Tetrahymena group I intron in knt gene, E. coli kanamycin selection, DiMSum; sequences stand for … in CUCUCU…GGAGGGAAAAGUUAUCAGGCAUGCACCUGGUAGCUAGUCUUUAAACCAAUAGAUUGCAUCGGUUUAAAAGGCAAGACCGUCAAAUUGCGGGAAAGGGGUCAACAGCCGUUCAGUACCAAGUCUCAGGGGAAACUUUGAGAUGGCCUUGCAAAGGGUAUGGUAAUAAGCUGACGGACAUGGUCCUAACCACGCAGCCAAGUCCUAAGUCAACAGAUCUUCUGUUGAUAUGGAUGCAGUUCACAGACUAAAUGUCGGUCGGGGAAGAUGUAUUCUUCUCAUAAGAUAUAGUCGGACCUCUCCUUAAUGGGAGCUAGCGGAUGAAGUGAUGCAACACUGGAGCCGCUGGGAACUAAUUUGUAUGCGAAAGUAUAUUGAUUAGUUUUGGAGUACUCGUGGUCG;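 also: selection with 25 µg/mL kanamycin versus none on LB agar overnight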
STUDY CONDITIONS: 30 °C
METRIC NAME: self-splicing fitness (ln)
Give the value as a plain number.

Example entries begin here.
INPUT SEQUENCE	METRIC NAME	RESULT VALUE
GGUCAGCAAUAUUACGUCAG	self-splicing fitness (ln)	-3.99
CGGAAGCAAUAUUACGUUCG	self-splicing fitness (ln)	-2.69
UACGAGCAAUAUUACGACAC	self-splicing fitness (ln)	-3.07
AUCCAGCAAUAUUACGGACA	self-splicing fitness (ln)	-0.527
UAGUAGCAAUAUUACGGUGG	self-splicing fitness (ln)	-3.44

[in] What value of self-splicing fitness (ln) has been reported for the following sequence? AUAGAGCAAUAUUACGCCUG
[out] -0.827

[in] Please answer likewise for GAGAAGCAAUAUUACGACAG
[out] -2.31

[in] And the next one, CGGAAGCAAUAUUACGAGGG ?
[out] -0.374

[in] Record: AGUAAGCAAUAUUACGCAUA
[out] -2.31

[in] Subsequent entry: GUCCAGCAAUAUUACGGUCC
[out] -3.66

[in] Can you check GUUGAGCAAUAUUACGGUCC next?
[out] -2.05

[in] Do the same for CUCGAGCAAUAUUACGGAGC please
[out] -3.66

[in] Now this one: CACCAGCAAUAUUACGGAAC
[out] -4.01

[in] Would you kindly repeat that for CGUGAGCAAUAUUACGUAUG ?
[out] -1.37

---

ASSAY METHOD TEXT: self-splicing fitness, log relative to wild type (ln ratio); higher = more splicing; Tetrahymena group I intron in knt gene, E. coli kanamycin selection, DiMSum; sequences stand for … in CUCUCU…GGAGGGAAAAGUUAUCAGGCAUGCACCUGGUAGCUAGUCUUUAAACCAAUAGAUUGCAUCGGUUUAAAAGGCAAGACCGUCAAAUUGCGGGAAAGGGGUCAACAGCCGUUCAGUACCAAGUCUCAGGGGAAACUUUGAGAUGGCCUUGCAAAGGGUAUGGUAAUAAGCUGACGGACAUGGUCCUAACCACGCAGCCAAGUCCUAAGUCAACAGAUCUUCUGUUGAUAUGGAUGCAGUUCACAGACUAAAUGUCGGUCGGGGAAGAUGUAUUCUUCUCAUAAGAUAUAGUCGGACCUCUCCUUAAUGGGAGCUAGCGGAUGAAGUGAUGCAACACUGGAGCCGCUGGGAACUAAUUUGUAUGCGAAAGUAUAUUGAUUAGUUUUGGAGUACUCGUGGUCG
STUDY CONDITIONS: 30 °C
METRIC NAME: self-splicing fitness (ln)

[in] GET /values?readout=self-splicing fitness (ln)&item= UUACAGCAAUAUUACGGUAG
[out] -1.92

Data provenance: the supplement of paper PMC7877785
